B1: TPR t1 (parent)
chain: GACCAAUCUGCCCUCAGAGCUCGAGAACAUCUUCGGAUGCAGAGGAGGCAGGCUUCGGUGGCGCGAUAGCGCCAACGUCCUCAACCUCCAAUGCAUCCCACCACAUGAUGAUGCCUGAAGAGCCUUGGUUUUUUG

Variants of: B1
Experiment: polymerase ribozyme fitness, log enrichment relative to wild type (log ratio); higher = more active; in vitro selection for triplet polymerase activity
Field: polymerase ribozyme fitness (log ratio). Provide a value for each of the variants that follow.
Returns: the value as a bare number; no unit string appended.

q: Value lookup for polymerase ribozyme fitness (log ratio); key = C72U C76A C88A U96A
a: -3.05

q: Please give the measured polymerase ribozyme fitness (log ratio) for this variant: G63A A91G U129A
a: -3.01

q: // returns reported polymerase ribozyme fitness (log ratio) for input A50U G113C
a: -3.07
